Ref: patent US8163909B2

# test: Microsomal stability assay, human liver microsomes;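 note: pooled human liver microsomes at 0.25 mg/mL with 1 µM compound and NADPH at 37 °C, pH 7.4, for 30 min, unchanged parent quantified by LC-MS/MS against the 0 min sample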
# experimental_parameters: human liver microsomal data
YES means recorded HLM is 70 µL/min/mg or above; NO means it is below 70 µL/min/mg.

| compound | class_label |
| --- | --- |
| CO[C@H](C)C(=O)N[C@@H](Cc1cccc(-c2nccs2)c1)[C@H](O)CN[C@H]1CC2(CCC2)Oc2ncc([C@@H]3CC3(C)C)cc21 [compound 905] | NO |
| CO[C@H](C)C(=O)N[C@@H](Cc1cccc(F)c1)[C@H](O)CN[C@H]1CC2(CCC2)Oc2c1cc(CC(C)(C)C)nc2-n1ccnc1 [compound 507] | NO |
| CO[C@@H](C)C(=O)N[C@@H](Cc1ccc2c(c1)OCO2)[C@H](O)CN[C@H]1CC2(CCC2)Cc2sc(CC(C)(C)C)cc21 [compound 456] | YES |
| COCC(=O)N[C@@H](Cc1ccc(F)cc1)[C@H](O)CN[C@@H]1CC2(CCC2)Oc2c1cc(CC(C)(C)C)nc2C#N [compound 492] | YES |
| CO[C@H](C)C(=O)N[C@@H](Cc1cc(-c2nccs2)ccc1F)[C@H](O)CN[C@H]1CC2(CCC2)Oc2ncc(CC(C)(C)C)cc21 [compound 898] | NO |
| COCC(=O)N[C@@H](Cc1cc(F)cc(-c2nccs2)c1)[C@H](O)CNC1CC2(CCC2)Oc2ncc(CC(C)(F)F)cc21 (stereo partly drawn) [Example 764] | NO |

* * *

# Tested on: Aβ40 in conditioned medium of cells stably expressing Amyloid Precursor Protein (APP)
# test: In vitro BACE cell-based assay (Aβ40 in conditioned medium, sandwich ELISA);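 note: compounds added as a dilution series, secreted peptide quantified by europium time-resolved fluorescence readout, potency fitted from percent of control versus compound concentration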
# experimental_parameters: Homo sapiens, HEK293, HEK cell-based assay IC50; read-out: HEK cell assay
Strictly below 0.06 µM in IC50: yes (1). Otherwise: no (0).

| molecule | assayed_system | class_label |
| --- | --- | --- |
| CC(=O)N[C@@H](Cc1cc(F)cc(F)c1)[C@H](O)CN[C@H]1CC2(CCC2)Oc2c(-c3ccncc3)cc(CC(C)C)cc21 [Example 673] | Aβ40 in conditioned medium of cells stably expressing Amyloid Precursor Protein (APP) | yes (1) |
| CCC(=O)N[C@@H](Cc1ccc2c(c1)OCO2)[C@H](O)CN[C@H]1CC2(CCC2)Oc2ncc(CC(C)C)cc21 [compound 726] | Aβ40 in conditioned medium of cells stably expressing Amyloid Precursor Protein (APP) | yes (1) |
| COCC(=O)N[C@@H](Cc1cc(F)cc(F)c1)[C@H](O)CN[C@H]1CC(C)(C)Oc2c1cc(CC(C)C)c1c2OCO1 [compound 748] | Aβ40 in conditioned medium of cells stably expressing Amyloid Precursor Protein (APP) | no (0) |
| CC(=O)N[C@@H](Cc1cccc(-c2ncc[nH]2)c1)[C@H](O)CN[C@H]1CC2(CCC2)Oc2ncc(CC(C)(C)C)cc21 [Example 429] | Aβ40 in conditioned medium of cells stably expressing Amyloid Precursor Protein (APP) | no (0) |
| CN1CCO[C@@H](C(=O)N[C@@H](Cc2ccc(F)cc2)[C@H](O)CN[C@H]2CC3(CCC3)Oc3ncc(CC(C)(C)C)cc32)C1 [compound 739] | Aβ40 in conditioned medium of cells stably expressing Amyloid Precursor Protein (APP) | yes (1) |
| C#Cc1cc2c(c(-n3ccnc3)c1)OC1(CCC1)C[C@@H]2NC[C@@H](O)[C@H](Cc1cc(F)cc(F)c1)NC(=O)COC [compound 689] | Aβ40 in conditioned medium of cells stably expressing Amyloid Precursor Protein (APP) | yes (1) |
| Cc1cccc(CN2CCO[C@H](C(=O)N[C@@H](Cc3ccc(F)cc3)[C@H](O)CN[C@H]3CC4(CCC4)Oc4ncc(CC(C)(C)C)cc43)C2)c1 [compound 691] | Aβ40 in conditioned medium of cells stably expressing Amyloid Precursor Protein (APP) | no (0) |
| CO[C@H](C)C(=O)N[C@@H](Cc1cc(F)cc(F)c1)[C@H](O)CN[C@H]1CC2(CCC2)Oc2c1cc(CC(C)C)nc2-c1cncn1C [Example 710] | Aβ40 in conditioned medium of cells stably expressing Amyloid Precursor Protein (APP) | yes (1) |
| CC(=O)N[C@@H](Cc1cc(F)cc(F)c1)[C@H](O)CN[C@H]1CC2(CCC2)Oc2c1cc(C1CC1)cc2-n1ccnc1 [compound 705] | Aβ40 in conditioned medium of cells stably expressing Amyloid Precursor Protein (APP) | yes (1) |
| COCC(=O)N[C@@H](Cc1cc(F)cc(F)c1)[C@H](O)CN[C@H]1CC(C)(C)Oc2c1cc(Br)c1c2OCO1 [compound 746] | Aβ40 in conditioned medium of cells stably expressing Amyloid Precursor Protein (APP) | no (0) |
| Cc1ccc(CN2CCO[C@H](C(=O)N[C@@H](Cc3ccc(F)cc3)[C@H](O)CN[C@H]3CC4(CCC4)Oc4ncc(CC(C)(C)C)cc43)C2)cc1 [compound 708] | Aβ40 in conditioned medium of cells stably expressing Amyloid Precursor Protein (APP) | no (0) |
| COCC(=O)N[C@@H](Cc1cc(F)cc(-c2nccn2C)c1)[C@H](O)CN[C@H]1CC2(CCC2)Oc2ncc(CC(C)(C)C)cc21 [compound 740] | Aβ40 in conditioned medium of cells stably expressing Amyloid Precursor Protein (APP) | yes (1) |
| CCOCC(=O)N[C@@H](Cc1ccc2c(c1)OCO2)[C@H](O)CN[C@H]1CC2(CCC2)Oc2ncc(CC(C)C)cc21 [compound 720] | Aβ40 in conditioned medium of cells stably expressing Amyloid Precursor Protein (APP) | no (0) |
| CO[C@H](C)C(=O)N[C@@H](Cc1ccc(F)c(F)c1)[C@H](O)CN[C@H]1CC(C)(C)Oc2ncc(CC(C)(C)C)cc21 [compound 675] | Aβ40 in conditioned medium of cells stably expressing Amyloid Precursor Protein (APP) | yes (1) |
| COCC(=O)N[C@@H](Cc1ccc(F)cc1)[C@H](O)CN[C@H]1CC(C)(C)Oc2c1cc(Br)c1c2OCO1 [compound 745] | Aβ40 in conditioned medium of cells stably expressing Amyloid Precursor Protein (APP) | no (0) |
| Cc1csc(CN2CCO[C@H](C(=O)N[C@@H](Cc3ccc(F)cc3)[C@H](O)CN[C@H]3CC4(CCC4)Oc4ncc(CC(C)(C)C)cc43)C2)n1 [compound 734] | Aβ40 in conditioned medium of cells stably expressing Amyloid Precursor Protein (APP) | yes (1) |
| COCC(=O)N[C@@H](Cc1cc(F)cc(-c2ncc(C)s2)c1)[C@H](O)CN[C@H]1CC2(CCC2)Oc2ncc(CC(C)C)cc21 [compound 732] | Aβ40 in conditioned medium of cells stably expressing Amyloid Precursor Protein (APP) | no (0) |
| C#Cc1cc(F)cc(C[C@H](NC(C)=O)[C@H](O)CN[C@H]2CC3(CCC3)Oc3ncc(CC(C)(C)C)cc32)c1 [compound 713] | Aβ40 in conditioned medium of cells stably expressing Amyloid Precursor Protein (APP) | yes (1) |
| Cc1ccccc1CN1CCO[C@@H](C(=O)N[C@@H](Cc2ccc(F)cc2)[C@H](O)CN[C@H]2CC3(CCC3)Oc3ncc(CC(C)(C)C)cc32)C1 [compound 692] | Aβ40 in conditioned medium of cells stably expressing Amyloid Precursor Protein (APP) | yes (1) |
| CO[C@H](C)C(=O)N[C@@H](Cc1cc(F)cc(F)c1)[C@H](O)CN[C@H]1CC2(CCC2)Oc2cnc(CC(C)C)cc21 [compound 688] | Aβ40 in conditioned medium of cells stably expressing Amyloid Precursor Protein (APP) | yes (1) |
| CN1CCO[C@H](C(=O)N[C@@H](Cc2ccc(F)cc2)[C@H](O)CN[C@H]2CC3(CCC3)Oc3ncc(CC(C)(C)C)cc32)C1 [compound 744] | Aβ40 in conditioned medium of cells stably expressing Amyloid Precursor Protein (APP) | no (0) |
| CC(=O)N[C@@H](Cc1ccc(-c2nccs2)cc1)[C@H](O)CN[C@H]1CC2(CCC2)Oc2ncc(CC(C)(C)C)cc21 [Example 677] | Aβ40 in conditioned medium of cells stably expressing Amyloid Precursor Protein (APP) | yes (1) |
| CC(=O)N[C@@H](Cc1ccc(-c2cncs2)cc1)[C@H](O)CN[C@H]1CC2(CCC2)Oc2ncc(CC(C)(C)C)cc21 [compound 694] | Aβ40 in conditioned medium of cells stably expressing Amyloid Precursor Protein (APP) | no (0) |
